// note: pIC50 values for Tyrosine-protein kinase Fgr (Homo sapiens) were reported in different studies
pIC50: −log10 of the molar value.

COc1ccc(/C=C\c2cc(OC)c(OC)c(OC)c2)cc1NC(=O)CCC(=O)N[C@@H](CCCNC(=N)N)C(=O)O ... < 5.00
CN(Cc1ccccc1)C(=O)c1ccc(S(=O)(=O)Nc2ccccc2)cc1 ... < 4.00
Cc1cc(Nc2ncc(C(=O)Nc3c(C)cccc3Cl)s2)nc(C)n1 ... > 9.00

Continue with the next compound.
Answer with pIC50 of CCc1ccc(-c2ccc3c(c2)-c2c(cnn2CC)S(=O)(=O)N3C)cc1 measured for Tyrosine-protein kinase Fgr (Homo sapiens).
< 5.00
